Biological target: panel of 203 kinases (Homo sapiens, UniProt P27361)
Construct: purchased DiscoverX (KINOMEscan)
Sequence (P27361 whole entry): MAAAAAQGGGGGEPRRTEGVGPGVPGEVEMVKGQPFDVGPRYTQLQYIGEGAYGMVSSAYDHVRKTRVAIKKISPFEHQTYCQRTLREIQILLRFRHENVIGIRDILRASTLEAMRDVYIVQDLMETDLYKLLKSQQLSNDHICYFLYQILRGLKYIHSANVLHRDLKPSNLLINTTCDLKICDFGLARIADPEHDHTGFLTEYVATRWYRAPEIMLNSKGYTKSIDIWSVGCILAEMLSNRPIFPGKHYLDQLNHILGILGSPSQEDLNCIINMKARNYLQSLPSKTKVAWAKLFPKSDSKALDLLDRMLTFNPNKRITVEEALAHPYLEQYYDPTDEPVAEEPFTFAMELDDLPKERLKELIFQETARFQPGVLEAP
Test: KINOMEscan competitive binding, whole panel
Details: 10 µM, n=1; kinase ERK1; read-out: Percent inhibition ERK1
RECORDED_ENDPOINT: inhibition at 10 µM (%)
Output spec: scalar in %, unitless text.

Take a look at these entries with their results.
COc1ccc(Nc2nccc(-c3cnn4ncccc34)n2)cc1; 98.5
Clc1ccc(Nc2ncc(-c3ccccc3)s2)cc1; 0
COc1cc(Nc2nccc(-c3sc(N)nc3-c3cccc(NC(=O)c4c(F)cccc4F)c3)n2)cc(OC)c1OC; 99.8
c1ccc(COc2cccc(-c3ccnc4[nH]ccc34)c2)cc1; 0
Cc1ccc(O)cc1N(C)c1ccnc(Nc2cccc(S(N)(=O)=O)c2)n1; 98.1

Entry under test: C[C@@H](Oc1cc(-c2cnc3ccccn23)sc1C(N)=O)c1ccccc1Cl . Its inhibition at 10 µM was 83.2

For Nc1ncc2c(-c3ccncc3)c[nH]c2n1 the compound record lists inhibition at 10 µM as 0

Value of inhibition at 10 µM reported for the compound Fc1cccc(COc2ccc(Nc3ncnc4c3CN(CCN3CCOCC3)CC4)cc2Cl)c1 is 0

Quick note, inhibition at 10 µM for CN1CCN(c2ccc(Nc3nccc(-c4cnn5ncccc45)n3)cc2C#N)CC1 landed at 98.5

Please fill in: inhibition at 10 µM reported for Cc1ccc(O)cc1Nc1ccnc(Nc2cccc(C(N)=O)c2)n1 = 67.8

====

Molecular target: panel of 203 kinases (Homo sapiens, UniProt Q9HAZ1)
Construct: purchased DiscoverX (KINOMEscan)
Sequence (Q9HAZ1 whole entry): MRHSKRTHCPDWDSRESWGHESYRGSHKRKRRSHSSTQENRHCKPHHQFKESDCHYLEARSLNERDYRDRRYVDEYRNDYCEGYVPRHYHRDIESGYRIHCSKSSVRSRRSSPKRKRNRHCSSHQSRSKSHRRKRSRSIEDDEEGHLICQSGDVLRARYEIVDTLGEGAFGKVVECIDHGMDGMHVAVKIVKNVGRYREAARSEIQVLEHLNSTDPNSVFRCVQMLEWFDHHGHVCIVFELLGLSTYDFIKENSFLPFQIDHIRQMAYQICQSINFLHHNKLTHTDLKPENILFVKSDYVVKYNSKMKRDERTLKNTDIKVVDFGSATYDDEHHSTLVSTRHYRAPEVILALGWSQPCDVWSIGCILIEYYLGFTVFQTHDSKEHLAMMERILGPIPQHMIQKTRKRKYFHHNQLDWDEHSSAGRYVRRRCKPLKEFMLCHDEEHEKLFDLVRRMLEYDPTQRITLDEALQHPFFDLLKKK
Assay: KINOMEscan competitive binding, whole panel
Settings: 10 µM, n=1; kinase CLK4; read-out: Percent inhibition CLK4
Description: The kinases were expressed as fusions to T7 bacteriophage. This is a sensitive, competitive binding assay where test compounds were used to displace immobilized ATP-site binding probe ligands from kinases of interest. The amount of kinase that remained bound to the immobilized probe ligands on the solid support was quantified. Percentage inhibition data were was plotted on kinome trees using the web-based tool KinMap (http://www.kinhub.org/kinmap) ([60]).
RECORDED_ENDPOINT: inhibition at 10 µM (%)
Respond numerically; units are % and should not be typed.

Nc1ncc2c(-c3ccncc3)c[nH]c2n1; 93.4
Fc1cccc(COc2ccc(Nc3ncnc4c3CN(CCN3CCOCC3)CC4)cc2Cl)c1; 0

Param item: C[C@@H](Oc1cc(-c2cnc3ccccn23)sc1C(N)=O)c1ccccc1Cl ; param system: panel of 203 kinases (Homo sapiens, UniProt Q9HAZ1); output inhibition at 10 µM: 81

Noted inhibition at 10 µM for COc1cc(Nc2nccc(-c3sc(N)nc3-c3cccc(NC(=O)c4c(F)cccc4F)c3)n2)cc(OC)c1OC , tested on panel of 203 kinases (Homo sapiens, UniProt Q9HAZ1): 0

With panel of 203 kinases (Homo sapiens, UniProt Q9HAZ1) as the test system, c1ccc(COc2cccc(-c3ccnc4[nH]ccc34)c2)cc1 showed inhibition at 10 µM of 0

====

List of inhibition at 10 µM values.
Target: panel of 203 kinases (Homo sapiens, UniProt Q08881)
Construct: purchased DiscoverX (KINOMEscan)
Sequence (Q08881 whole entry): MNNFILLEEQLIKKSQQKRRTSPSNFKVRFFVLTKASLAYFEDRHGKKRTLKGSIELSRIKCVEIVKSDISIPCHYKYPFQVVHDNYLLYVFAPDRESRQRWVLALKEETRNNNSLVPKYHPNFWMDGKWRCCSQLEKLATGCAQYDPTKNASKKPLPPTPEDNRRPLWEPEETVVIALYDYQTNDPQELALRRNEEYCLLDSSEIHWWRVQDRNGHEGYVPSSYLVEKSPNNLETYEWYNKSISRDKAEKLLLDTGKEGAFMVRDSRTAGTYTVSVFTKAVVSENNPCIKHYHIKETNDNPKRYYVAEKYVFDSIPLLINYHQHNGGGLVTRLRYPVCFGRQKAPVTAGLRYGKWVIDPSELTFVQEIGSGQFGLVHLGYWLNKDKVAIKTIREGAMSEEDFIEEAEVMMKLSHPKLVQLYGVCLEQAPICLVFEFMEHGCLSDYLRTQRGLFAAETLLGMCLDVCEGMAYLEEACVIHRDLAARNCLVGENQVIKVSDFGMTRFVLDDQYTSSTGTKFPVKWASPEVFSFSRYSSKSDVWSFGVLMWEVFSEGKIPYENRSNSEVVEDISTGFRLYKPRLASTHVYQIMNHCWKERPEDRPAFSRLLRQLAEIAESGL
Assay: KINOMEscan competitive binding, whole panel
Conditions: 10 µM, n=1; kinase ITK; read-out: Percent inhibition ITK
Kindly provide the numeric value in % only, without the unit symbol.

Take a look at these entries with their results.
COc1ccc(Nc2nccc(-c3cnn4ncccc34)n2)cc1; 0
C[C@@H](Oc1cc(-c2cnc3ccccn23)sc1C(N)=O)c1ccccc1Cl; 0
Fc1cccc(COc2ccc(Nc3ncnc4c3CN(CCN3CCOCC3)CC4)cc2Cl)c1; 0
Cc1ccc(O)cc1Nc1ccnc(Nc2cccc(C(N)=O)c2)n1; 0

Next:
Item: CN1CCN(c2ccc(Nc3nccc(-c4cnn5ncccc45)n3)cc2C#N)CC1 | inhibition at 10 µM: 79
